System: MS2 coat protein
Assay: apparent KD of MS2 coat protein; designed switch direction (-1 OFF switch, 1 ON switch): -1; higher = weaker reporter binding
Settings: input ligand: FMN 200 uM
outcomeMeasure: apparent KD of MS2 coat protein

CUACUGAAGCUUUGCUUUAGUCGUACAUGAGGAUCACCCAUGUAGGAUAUACAUGAGGAUCACCCAUAGAAGGAUAGAGUGAUC [salish99_ExNG3_r04_602] (Eterna round: R96, puzzle: Exclusion NG 3) : 0.0361 µM
CAUGUCCAACGAGGAUAUGGUAAAGGAAGUGUACCAGAAGGCGUGCGGACAUGAGGAUCACCCAUGUCGCGCGGUGCGAUGUGG [MOD3 Nando EXNG 1.1] (Eterna round: R96, puzzle: Exclusion NG 1) : 0.0372 µM
GAAUAGCAAGCGAGAUCCCACAUGAGGAUCACCCAUGUGCUCGUCUUAUAAAGUACUGUGACGAGAGUCACGGUACA [Mat - Sensor, turn-off var - Eli Mod - D14] (Eterna round: R97, puzzle: Sensor, turn-off variant 1) : 0.0143 µM
CCGUGCACGCUGCGGUCCUACAUGAGGAUCACCCAUGUGGUCUGGUGGCGUGGGUCGCCGGACUUGGCUCGUCUUGA [salish99_S_TOV1_R5_021] (Eterna round: R97, puzzle: Sensor, turn-off variant 1) : 0.0188 µM
UAUUAGCAAGCGAGUCUUCACAUGAGGAUCACCCAUGUGCUCGUCUUAUAAGGUACUGUGACGAAAGUCACGGUACC [Eli 91 v32] (Eterna round: R97, puzzle: Sensor, turn-off variant 1) : 0.0154 µM
ACAUGUCUUGUAGGAUAUAGUUGACAUGAGGAUCACCCAUGUUGAUUCAUGUCUAUCGAAAGGGACUAGAAGGACGAGAAUAUG [Ex NG2 #16] (Eterna round: R96, puzzle: Exclusion NG 2) : 0.0875 µM

Answer for every listed entry: what is its apparent KD of MS2 coat protein? The entries follow.
1. ACGCACACGCACGCACGCACACAUGAGGAUCACCCAUGUAAUUAGGAUAUAUUGAAGAACAGAGAAUAGAAGGAAUUACUCAUG [Default title] (Eterna round: R96, puzzle: Exclusion NG 3)
2. ACCUCUACGCUUUCCAAGGGUAGACCUGGUGUUUGUCACACAUGAGGAUCACCCAUGUGCACUGUGCGAGUCGAACA [solution 38] (Eterna round: R96, puzzle: Sensor v2, turn-off variant 2)
3. GCUAAACAUGUAGGAUAUGCGUGGCGAAGCUAUGCAGAAGGACAUGAGGAUCACCCAUGUUUUAGCGUCUGCGUACAGAUGCGU [JL ENG1 1.43] (Eterna round: R96, puzzle: Exclusion NG 1)

[out]
1: 0.105 µM; 2: 0.0495 µM; 3: 0.318 µM

----------
System: K4 kissing-loop RNA reporter;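 further: bound reporter read as fluorescence of individual clusters on recovered sequencing chips by microscopy, with normalized cluster intensities fitted with a binding model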
Assay: apparent KD of K4 kissing-loop reporter; higher = weaker reporter binding
Details: Eterna round: R107; input ligand: FMN 200 uM
Task for the reader: assign each of the following sequences its reported apparent KD of K4 kissing-loop reporter.
Numbers only, in nM.

For orientation, consider the following solved cases.
UGAUACCAGACUGAUACCAGCCACAGAGUCAAGACUCUGAUAAAGGUAACCAGUGAUGUUGGCCCUUGGCAGCAGUCUGGUAUCU [TheoBX 16 #SwitchBubble #StaticStem] : 193
GGUAGCAUGGCGGCCGCCACUACAAGUAGUGACCCAAGUGAUGUUUGGAAGCGGGUCCUAAUUGGUAGGACCGGGCCAUGCUACC : 509

Answer for every listed entry: what is its apparent KD of K4 kissing-loop reporter? The entries follow.
1. CACGAUGAAUUCUCUAGGAGUGAUGUUUUUCGAGGACCGGUACGGCCGCCACUCGGACCAGGAGCGUGGUAGCGGCGAAAAGACU [zpmullin]
2. CCCGUACCAGUGAUGUUGGUAUGGUCUGAUACCAGUCUGUAGUCGGGCCCUUGGCAGCAGACCCUUGCCAAGGUGACGACUCCGG [Qu]

[out]
1: 769; 2: 128
